Could you please report measured half-life at 20 µM for the items listed next?
Experiment: Mouse plasma stability
Assay type: in vitro ADME, mouse (CD-1)
Settings: CD-1 mouse plasma, 37° C., time points to 160 min; read-out: Mouse Plasma Stability t1/2
Experimental: Alongside a positive control of propantheline bromide, 8 μL of a 1 mM solution of each test compound in DMSO was placed in two wells of a Nunc™ 96-well plate called the “dilution plate.” To one well, 392 μL of HyClone™ water was added and mixed by a pipette. […] 100 μL of the supernatant of each well were then transferred to corresponding unique wells in a “read plate” (96-well Costar® plate) that were filled with 100 μL of HyClone™ water. […]
Give bare numbers, in h.

Example compounds with recorded half-life at 20 µM:
mol=CC(C)(N)Cn1cccc(-c2cc(NCc3ccc(Cl)s3)n(C(=O)c3ccoc3)n2)c1=O measured_endpoint="half-life at 20 µM" observed_value=2.67
mol=CC(C)(C)C(=O)n1nc(-c2cccn(CC(F)(F)C(=O)O)c2=O)cc1NCc1ccc(Cl)s1 measured_endpoint="half-life at 20 µM" observed_value=0.117
mol=CC(C)(C)C(=O)n1nc(-c2cccn(CCCC(=O)O)c2=O)cc1NCc1ccc(Cl)s1 measured_endpoint="half-life at 20 µM" observed_value=3.83

Respectfully, I request half-life at 20 µM for each entry included below.
1. O=C(O)CCn1cccc(-c2cc(NCc3ccc(Cl)s3)n(C(=O)c3ccoc3)n2)c1=O
2. CC(C)(C)C(=O)n1nc(-c2cccn(CCC(N)=O)c2=O)cc1NCc1ccc(Cl)s1

Return:
[3.67, 2.67]
